src = patent US4399139A

Can you tell me selectivity ratio for the items I'm about to list?
- method.description: Anti-cholinergic side-effect: mydriasis (pupil diameter) in the rat
- Assay type: in vivo, Sprague-Dawley rats
- measurement.parameters: in vivo, sc, subcutaneously, ratio of mydriatic to secretion-inhibiting dose, read-out: Mydriatic action, ED 2 mm / ED 0.75

[in] Give its selectivity ratio value. Item: CN1CCN(C(=O)C=C2c3ccccc3NC(=O)c3ccccc32)CC1 (mixture of isomers) [Example 1 cis/trans]
[out] > 3900

[in] Give its selectivity ratio value. Item: CN1CCN(C(=O)/C=C2/c3ccccc3NC(=O)c3ccccc32)CC1 [Example 1 cis]
[out] 6200
